Cited source: patent US20240059691A1

# Assayed Target: Plasma Kallikrein (Homo sapiens (Human))
# Sequence (P03952 391-638): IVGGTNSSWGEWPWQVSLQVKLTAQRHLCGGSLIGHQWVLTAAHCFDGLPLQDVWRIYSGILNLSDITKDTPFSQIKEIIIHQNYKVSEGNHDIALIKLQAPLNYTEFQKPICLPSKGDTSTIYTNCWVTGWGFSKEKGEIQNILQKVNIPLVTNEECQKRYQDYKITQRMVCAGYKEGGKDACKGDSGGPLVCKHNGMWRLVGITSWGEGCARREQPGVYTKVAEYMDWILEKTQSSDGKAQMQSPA
# Sequence (P03952 20-390 partner): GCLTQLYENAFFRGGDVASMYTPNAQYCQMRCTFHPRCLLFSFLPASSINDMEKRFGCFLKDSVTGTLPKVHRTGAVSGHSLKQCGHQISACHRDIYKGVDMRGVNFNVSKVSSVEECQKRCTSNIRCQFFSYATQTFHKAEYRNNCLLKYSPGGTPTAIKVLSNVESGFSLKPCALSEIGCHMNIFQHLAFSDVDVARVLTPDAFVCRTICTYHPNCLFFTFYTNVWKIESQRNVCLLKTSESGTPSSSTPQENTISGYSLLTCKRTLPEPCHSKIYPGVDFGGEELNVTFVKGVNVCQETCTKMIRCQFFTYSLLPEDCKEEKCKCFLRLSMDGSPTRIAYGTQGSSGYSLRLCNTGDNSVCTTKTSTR
# Assay Summary: Determination of related protease inhibition: Plasma Kallikrein (fluorogenic substrate at Km)
# Measurement Setup: 25° C., read-out: IC50 (human PKal)
pIC50: −log10 of the molar value.
Attribute: pIC50
Property: pIC50

>>> measured_result("Nc1nccc2c(NCc3ccnc(OCC4CCn5ccnc5C4)c3)cccc12 (single isomer, unassigned) [Example 4430]")
"< 5.40"
>>> measured_result("CN1CCC(CNc2ccc(CNc3cnc4nccnc4c3)cn2)CC1")
"< 4.40"
>>> measured_result("Cn1ccnc1CCOc1cc(CNc2cccc3c(N)nccc23)ccn1")
"< 4.40"
>>> measured_result("CN1CCC(CNc2ccc(CNc3nccc4[nH]ccc34)cn2)CC1")
"< 4.40"

---

What follows is a record of IC50 for UniProtKB P00734.
Property: IC50

>>> measured_result("CN1CC2CCC(C1)C2COc1cc(CNc2cccc3c(N)nccc23)ccn1 (centres unmarked)")
"> 40 µM"
>>> measured_result("Nc1nccc2c(NCc3ccc(OCC4CCn5ccnc5C4)nc3)cccc12 (single isomer, unassigned)")
"10 to 40 µM"
>>> measured_result("CC(C)N1C[C@H]2C[C@@H]1CN2CCc1ccc(CNc2cccc3c(N)nccc23)c(F)c1 (stereo in doubt)")
"> 40 µM"
>>> measured_result("Cc1cc2c(NCc3ccc(NCC4CCN(C)CC4)nc3)ccnc2[nH]1")
"10 to 40 µM"
>>> measured_result("CN1CCC(COc2ccc(CNc3ccc4cnccc4c3)cn2)CC1")
"> 20 µM"
>>> measured_result("CN1CCC(COc2ccc(CNc3ccc4c(N)nccc4c3)cn2)CC1")
"10 to 40 µM"
>>> measured_result("Nc1nccc2c(NCc3ccnc(OCC4CCn5ccnc5C4)c3)cccc12 (centres unmarked)")
"> 40 µM"
>>> measured_result("CN1CCC(CNc2ccc(CNc3ccc4cnccc4c3F)cn2)CC1")
"> 100 µM"
>>> measured_result("CCN1CCC(OCc2ccc(CNc3cccc4c(N)nccc34)c(F)c2)CC1")
"> 20 µM"
>>> measured_result("CN1CC2C[C@H]1C[C@H]2OCc1ccc(CNc2ccc3c(N)nccc3c2)c(F)c1 (single isomer, unassigned)")
"10 to 40 µM"
>>> measured_result("CN1CCC(Oc2ccc(CNc3ccc4c(N)nccc4c3)cn2)CC1")
"1 to 3 µM"
>>> measured_result("CN1CCC(COc2cc(CNc3ccnc4c(N)nccc34)ccn2)CC1")
"> 40 µM"
>>> measured_result("CN1CCC(COc2cc(CNc3cccc4c(N)nccc34)ccn2)CC1")
"> 20 µM"
>>> measured_result("CN1[C@@H]2COC[C@H]1CC(OCc1ccc(CNc3cccc4c(N)nccc34)c(F)c1)C2 (some centres unmarked)")
"> 40 µM"
>>> measured_result("CN1CC2C(COc3cc(CNc4ccc5c(N)nccc5c4)ccn3)C2C1 (centres unmarked)")
"0.3 to 1 µM"
>>> measured_result("CN1CC(C2CN(c3cc(CNc4ccc5c(N)nccc5c4)ccn3)C2)C1")
"3 to 10 µM"
>>> measured_result("CC(C)N1CC2(CN(Cc3ccc(CNc4cccc5c(N)nccc45)c(F)c3)C2)C1")
"> 40 µM"

---

# Assayed Target: KLK1 (Homo sapiens (Human), UniProt P06870)
# Sequence (P06870 25-262): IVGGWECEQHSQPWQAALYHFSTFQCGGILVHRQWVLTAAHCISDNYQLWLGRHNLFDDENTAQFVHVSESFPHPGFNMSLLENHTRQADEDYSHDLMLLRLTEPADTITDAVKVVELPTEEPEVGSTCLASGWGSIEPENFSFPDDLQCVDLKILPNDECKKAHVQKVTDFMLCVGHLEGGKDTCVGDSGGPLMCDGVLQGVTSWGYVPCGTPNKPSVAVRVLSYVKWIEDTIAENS
Property: IC50

>>> measured_result("CC(=O)N1CC2CC1CC2COc1cc(CNc2ccc3c(N)nccc3c2)ccn1 (centres unmarked)")
"1 to 3 µM"
>>> measured_result("CC1CN(c2ccc(CNc3cccc4c(N)nccc34)cn2)Cc2nnc(C(F)(F)F)n21 (single isomer, unassigned) [Example 1296]")
"3 to 10 µM"
>>> measured_result("CCc1cc(N2CCn3c(nnc3C(F)(F)F)C2)ncc1CNc1cccc2c(N)nccc12")
"> 4 µM"
>>> measured_result("CN1CC2CCC(C1)C2COc1cc(CNc2ccc3c(N)nccc3c2)ccn1 (centres unmarked)")
"0.3 to 1 µM"
>>> measured_result("CN1C[C@@H](COc2cc(CNc3cccc4c(N)nccc34)ccn2)OC1=O")
"10 to 40 µM"
>>> measured_result("Nc1nccc2c(NCc3ccnc(OCC4CCn5ccnc5C4)c3)cccc12 (centres unmarked)")
"3 to 10 µM"
>>> measured_result("Nc1nccc2c(NCc3ccc(OCC4CCn5ccnc5C4)nc3)cccc12 (single isomer, unassigned) [Example 1029]")
"3 to 10 µM"
>>> measured_result("CC(C)N1CCC(CN(CCCO)C(=O)c2cccc(CNc3cccc4c(N)nccc34)c2)CC1")
"1 to 3 µM"
>>> measured_result("Cc1cc(N2CCn3c(nnc3C(F)(F)F)C2C)ncc1CNc1cccc2c(N)nccc12 (racemic) [Example 1303]")
"> 4 µM"
>>> measured_result("Cn1ccnc1CCOCc1ccc(CNc2cccc3c(N)nccc23)c(F)c1")
"10 to 40 µM"
>>> measured_result("CN1CCC(CNc2ccc(CNc3cncc4[nH]c(Cl)cc34)cn2)CC1")
"10 to 40 µM"
>>> measured_result("CN1CC2CCC(C1)C2COc1cc(CNc2cccc3c(N)nccc23)ccn1 (centres unmarked)")
"3 to 10 µM"
>>> measured_result("CN1CCC(COc2cc(CNc3cccc4[nH]nc(Cl)c34)ccn2)CC1")
"1 to 3 µM"
>>> measured_result("CC(=O)N1CC2CC1CC2COc1cc(CNc2cccc3c(N)nccc23)ccn1 (centres unmarked)")
"3 to 10 µM"
>>> measured_result("CC(C)N1CC2(CN(Cc3ccc(CNc4cccc5c(N)nccc45)c(F)c3)C2)C1")
"10 to 40 µM"
>>> measured_result("Nc1nccc2c(NCc3cnc(N4CCn5c(nnc5C(F)(F)F)C4)cc3Cl)cccc12")
"3 to 10 µM"
>>> measured_result("Nc1nccc2c(NCc3ccc(N4CCn5c(nnc5C(F)(F)F)C4)nc3C(F)(F)F)cccc12")
"10 to 40 µM"
